# targetOrTestSystem: T1, human SIRPα variant 2 (human, UniProt P78324 31-504)
# T1 construct: full length ORF on transfected CHO-K1 cells; also called hSIRPαV2; SIRPαV2
# T1 sequence (P78324 other isoform, or with tags, fused parts or gaps mutant limits assumed): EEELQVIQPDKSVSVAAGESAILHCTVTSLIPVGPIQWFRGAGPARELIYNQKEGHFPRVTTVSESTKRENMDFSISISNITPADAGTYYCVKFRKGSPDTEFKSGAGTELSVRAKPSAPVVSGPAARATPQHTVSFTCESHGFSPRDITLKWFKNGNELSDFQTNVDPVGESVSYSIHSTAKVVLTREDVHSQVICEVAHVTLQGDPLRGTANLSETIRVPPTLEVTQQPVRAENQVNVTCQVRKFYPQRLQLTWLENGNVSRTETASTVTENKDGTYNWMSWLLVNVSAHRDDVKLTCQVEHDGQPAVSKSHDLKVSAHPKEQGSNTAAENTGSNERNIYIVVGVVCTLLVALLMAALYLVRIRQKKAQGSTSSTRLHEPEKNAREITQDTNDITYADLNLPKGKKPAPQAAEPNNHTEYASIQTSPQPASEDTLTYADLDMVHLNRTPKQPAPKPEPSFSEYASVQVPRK
# protocolDescription: CELISA, CHO-K1 transfectants; average of two experiments
endpoint: EC50 (nM)
Entry rule: numbers only, all in nM.

Exam item: What does the record list as EC50 for hSIRPα.50A.H5L1 (antibody, human IgG4 S228P, kappa, V domains shown, human IgG4 S228P, kappa; also called hSIRPα.50H5L1) VH: EVQLVQSGAEVVKPGASVKVSCKASGFTFTNYYIHWVRQAPEQGLEWIGWIYPGNVNTKYNEKFKARVTMTADKSTSTAYMELSSLRSDDMAVYYCARPTIIATDFDVWGQGTTVTVSS VL: DIVLTQSPSFLSASVGDRVTITCKASQGVGTAVGWYQQKPGKAPKLLIYWASTRHTGVPDRFSGSGSGTEFTLTISSLQPEDFAAYYCQQYSTYPFTFGGGTKLEIKR ?
Marked response: 0.709
